Values were extracted from PubChem BioAssay (Tox21).

measurementProtocol: qHTS assay to identify aromatase inhibitors - cell viability counter screen (AID 743084);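 further: cells stimulated with testosterone during compound exposure; nearly all actives have a fitted effect of over 55% in size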
conditionSet: MCF-7 aro ERE viability, CellTiter-Fluor, 24 h; series mostly up to 70.3 µM
Records with an inconclusive call do not appear. The source made the active and inactive calls. The call rests on the fitted dose curve; in most records, active means well fitted cell-killing curve with a large enough effect in the repeat runs; inconclusive means weak or mixed curves, or effect the other way; inactive means no such curve, though single readings can be large or run the other way.
Your reply should match one of these outcome classes. t (active), f (inactive)

Examples with answers:
INSERT INTO assay_data (compound, group) VALUES
  ('O=C1CCc2cc(OCCCCc3nnnn3C3CCCCC3)ccc2N1', 'f'),
  ('O=C(O)c1cccc(C(F)(F)F)c1', 'f'),
  ('CCCCCCCCCCOC(=O)c1ccccc1C(=O)OCCCCCCCC', 'f'),
  ('CCCCOC(=O)CC', 'f'),
  ('CCCNCCC', 'f');

In: Hi, sorry to bother you, what did the test record for "Sc1nc2ccccc2s1" ?
Out: f

In: Please share the test call associated with "CCOc1ccc2ccccc2c1C(=O)N[C@@H]1C(=O)N2[C@@H]1SC(C)(C)[C@@H]2C(=O)O" .
Out: f

In: How was CN1CCCCC1CCN1c2ccccc2Sc2ccc(S(C)=O)cc21 (stereo not drawn) classified in this test?
Out: f

In: What outcome does the record of this test show for "O=C(Oc1ccccc1)Oc1ccccc1" ?
Out: f

In: Outcome logged for "Cc1c(C)c([N+](=O)[O-])c(C(C)(C)C)c([N+](=O)[O-])c1C" in this assay:
Out: f

* * *

measurementProtocol: qHTS assay for small molecules that induce genotoxicity in human embryonic kidney cells expressing luciferase-tagged ATAD5 (AID 651632); further: nearly all actives have a fitted effect of over 15% in size
conditionSet: HEK293T ATAD5-luciferase induction, 16 h; series mostly up to 83.3 µM
Records with an inconclusive call do not appear. The source made the active and inactive calls. Calls follow the shape of the dose curve; as a rule, active = well fitted activation curve with a large enough effect in the repeat runs; inconclusive = weak or mixed curves; inactive = no such curve, though single readings can be large or run the other way.
Respond with a class label; see active, inactive

Use the examples below as a reference point.
INSERT INTO results (molecule, group) VALUES
  ('O=C(/C=C/c1ccccc1)OC/C=C/c1ccccc1', 'inactive'),
  ('O=S(=O)(O)c1ccccc1/C=C/c1ccc(-c2ccc(/C=C/c3ccccc3S(=O)(=O)O)cc2)cc1', 'inactive'),
  ('O=C1OC2(c3ccc(O)cc3Oc3cc(O)ccc32)c2ccc(N=C=S)cc21', 'inactive'),
  ('C[C@H]1NCc2cc(-c3ccc4c(=O)c(C(=O)O)cn(C5CC5)c4c3OC(F)F)ccc21', 'inactive'),
  ('CCn1c2ccccc2c2cc([N+](=O)[O-])ccc21', 'inactive'),
  ('C#C[C@]1(OC(C)=O)CC[C@H]2[C@@H]3CCC4=C[C@@H](OC(C)=O)CC[C@@H]4[C@H]3CC[C@@]21C', 'inactive'),
  ('COC(=O)c1ccccc1C', 'inactive'),
  ('CC(C)(C)c1csc(-c2cc3cc(OCc4ccccc4CC(=O)O)ccc3o2)n1', 'inactive');

In: Dear all, I need the recorded test outcome for "CNC(=O)c1ccccc1Sc1ccc2c(/C=C/c3ccccn3)n[nH]c2c1" , thank you.
Out: active

In: Kindly provide the recorded test outcome for the following molecule: "Oc1c(I)cc(Cl)c2cccnc12"
Out: inactive

In: Hi team, can someone confirm the assay call for "Cc1nc2n(c(=O)c1CCN1CCC(c3noc4cc(F)ccc34)CC1)CCCC2" ?
Out: inactive

In: Outcome logged for "Cc1ccc(C(C)C)cc2c(C)ccc1-2" in this assay:
Out: inactive

In: What outcome does the record of this test show for "CCOC(=O)Cn1cccc1-c1nc(-c2ccc(OC)cc2)c(-c2ccc(OC)cc2)s1" ?
Out: inactive

In: In this assay, the call recorded for "CC(=O)OCC=C(C)C" was what?
Out: inactive
